System: MCF7 adenocarcinoma cell line
Experiment: Cell proliferation studies in MCF7 cells (ATP-Lite)
Assay type: cell-based
Conditions: Homo sapiens, 240 h, 10 days incubation, cell viability by ATP-Lite luminescence, read-out: PROLIFERATION_CTG_MCF7 IC50
Description: Cell Proliferation Studies in MCF7 Cells Cell proliferation studies were conducted in MCF7 adenocarcinoma cell line. […] Cell viability was measured using the ATP-Lite 1-Step Luminescence reagent (Perkin Elmer, Catalog #: 6016731) as per manufacturer's instructions. Luminescence signal was measured with a multimode plate reader (Envision 2105, Perkin Elmer). […] Luminescence values were normalized to both background and DMSO controls to obtain a percentage of viable cells relative to DMSO vehicle control.
Readout name: IC50

compound="CN1CCC(c2ccc(Nc3ncc(F)c(-c4sc5c(c4C(F)(F)F)C(=O)N(C)C54CC4)n3)nc2)CC1 [Example 10]" system_tested="MCF7 adenocarcinoma cell line" readout_name=IC50 reported_value="20 to 200 nM"
compound="CCN1C(=O)c2cc(-c3nc(Nc4ccc(C5CCN(C)CC5)cn4)ncc3C)sc2C12CC2 [Example 19]" system_tested="MCF7 adenocarcinoma cell line" readout_name=IC50 reported_value="20 to 200 nM"
compound="Cc1cnc(Nc2ccc(C3CCN(C)CC3)cn2)nc1-c1cc2c(s1)C1(CC1)N(C)C2=O [Example 80]" system_tested="MCF7 adenocarcinoma cell line" readout_name=IC50 reported_value="≤ 20 nM"
compound="Cc1c(-c2nc(Nc3ccc(C4CCN(C(C)C)C4)cn3)ncc2F)sc2c1C(=O)N(C)C21CC1 (stereo not drawn) [Example 16]" system_tested="MCF7 adenocarcinoma cell line" readout_name=IC50 reported_value="20 to 200 nM"
compound="Cc1c(-c2nc(Nc3ccc(N4CC5(CCN(C)C5)C4)cn3)ncc2F)sc2c1C(=O)N(C)C21CC1 [Example 14]" system_tested="MCF7 adenocarcinoma cell line" readout_name=IC50 reported_value="≤ 20 nM"
compound="CCN1C(=O)c2cc(-c3nc(Nc4ccc(C5CCCN(C)C5)cn4)ncc3C)sc2C12CC2 (stereo not drawn) [Example 18]" system_tested="MCF7 adenocarcinoma cell line" readout_name=IC50 reported_value="20 to 200 nM"
compound="Cc1c(-c2nc(Nc3ccc(C4CCN(C(C)C)CC4)nn3)ncc2F)sc2c1C(=O)N(C)CC21CC1 [Example 83]" system_tested="MCF7 adenocarcinoma cell line" readout_name=IC50 reported_value="20 to 200 nM"
compound="CN1CCC(c2ccc(Nc3ncc(F)c(-c4cc5c(s4)C4(CCCC4)CN(C)C5=O)n3)nc2)CC1 [Example 2]" system_tested="MCF7 adenocarcinoma cell line" readout_name=IC50 reported_value="20 to 200 nM"

Continue with the compound presented below.
Input: I have this compound here, Cc1c(-c2nc(Nc3ccc(C4CCN(C5CCOC5)CC4)cn3)ncc2F)sc2c1C(=O)N(C)CC21CC1 (stereo not drawn) [Example 32] , and I need its recorded IC50.
Output: 20 to 200 nM
